human Flt-3 kinase domain R571-S993 (Homo sapiens): reported IC50 for various molecules.
Sequence (P36888 571-993): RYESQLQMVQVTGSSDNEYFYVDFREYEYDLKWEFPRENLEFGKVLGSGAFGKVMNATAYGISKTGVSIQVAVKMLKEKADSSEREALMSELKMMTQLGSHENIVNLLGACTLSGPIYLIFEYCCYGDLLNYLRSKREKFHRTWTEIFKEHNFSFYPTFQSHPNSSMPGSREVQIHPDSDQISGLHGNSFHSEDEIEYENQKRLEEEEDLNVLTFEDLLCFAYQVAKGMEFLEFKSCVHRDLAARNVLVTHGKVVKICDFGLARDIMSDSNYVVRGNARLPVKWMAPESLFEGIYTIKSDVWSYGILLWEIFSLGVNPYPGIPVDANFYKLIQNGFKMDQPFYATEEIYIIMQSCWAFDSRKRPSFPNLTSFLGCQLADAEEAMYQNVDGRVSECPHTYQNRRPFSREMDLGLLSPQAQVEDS

O=C(Cc1ccccc1)NC(=S)Nc1ccc(Oc2ncnc3[nH]ccc23)c(F)c1 [Entry 3] ... > 500 nM

Moving on to the next molecule.
Query :: Which IC50 is listed for O=C(NCCN1CCOCC1)c1cc2c(Oc3ccc(NC(=O)C4(C(=O)Nc5ccc(F)cc5)CC4)cc3F)ncnc2[nH]1 [Entry 12] ?
Result :: < 50 nM

====

# Target: human KDR kinase domain D807-V1356 (Homo sapiens, UniProt P35968)
# Sequence (P35968 807-1356): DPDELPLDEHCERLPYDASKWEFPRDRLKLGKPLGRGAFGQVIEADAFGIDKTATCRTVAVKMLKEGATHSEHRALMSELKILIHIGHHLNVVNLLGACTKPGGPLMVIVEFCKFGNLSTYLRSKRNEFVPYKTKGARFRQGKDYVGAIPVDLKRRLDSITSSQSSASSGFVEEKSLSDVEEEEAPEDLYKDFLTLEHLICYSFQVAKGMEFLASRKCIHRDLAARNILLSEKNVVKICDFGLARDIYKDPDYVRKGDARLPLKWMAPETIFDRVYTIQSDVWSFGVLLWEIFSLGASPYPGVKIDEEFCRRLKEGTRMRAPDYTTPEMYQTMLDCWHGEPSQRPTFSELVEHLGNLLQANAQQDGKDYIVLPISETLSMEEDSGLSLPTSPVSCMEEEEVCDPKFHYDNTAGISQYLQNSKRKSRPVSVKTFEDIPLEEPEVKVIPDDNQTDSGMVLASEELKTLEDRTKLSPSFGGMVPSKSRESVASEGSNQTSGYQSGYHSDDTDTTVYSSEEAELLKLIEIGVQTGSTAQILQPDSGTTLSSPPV
pIC50: −log10 of the molar value.
Quantity measured: pIC50

Use these answered entries as a reference point.
O=C(Nc1ccc(F)cc1)C1(C(=O)Nc2ccc(Oc3ncnc4[nH]cnc34)cc2)CC1 [Entry 10] ... < 6.30
O=C(Nc1ccc(F)cc1)C1(C(=O)Nc2ccc(Oc3ncnc4c3cnn4C3CCCCO3)cc2)CC1 (stereo not drawn) [Entry 4] ... < 6.30
O=C(CC(=O)Nc1ccc(Oc2ncnc3[nH]ccc23)c(F)c1)Nc1ccc(F)cc1 [Entry 1] ... 6.30 to 7.30

Query :: Which pIC50 is listed for O=C(Nc1ccc(F)cc1)C1(C(=O)Nc2ccc(Oc3ncnc4[nH]ncc34)cc2)CC1 [Entry 6] ?
Result :: 6.30 to 7.30

Query :: One more compound: O=C(Cc1ccccc1)NC(=S)Nc1ccc(Oc2ncnc3c2cnn3C2CCCCO2)cc1 (stereo not drawn) [Entry 5]
Result :: < 6.30

Query :: One more compound: O=C(Cc1ccccc1)NC(=S)Nc1ccc(Oc2ncnc3[nH]cnc23)cc1 [Entry 11]
Result :: < 6.30

====

Property: pIC50; scope: individual compounds
# Target: human c-Met kinase domain P948-S1343 (Homo sapiens)
# Sequence (P08581 1011-1367 limits assumed): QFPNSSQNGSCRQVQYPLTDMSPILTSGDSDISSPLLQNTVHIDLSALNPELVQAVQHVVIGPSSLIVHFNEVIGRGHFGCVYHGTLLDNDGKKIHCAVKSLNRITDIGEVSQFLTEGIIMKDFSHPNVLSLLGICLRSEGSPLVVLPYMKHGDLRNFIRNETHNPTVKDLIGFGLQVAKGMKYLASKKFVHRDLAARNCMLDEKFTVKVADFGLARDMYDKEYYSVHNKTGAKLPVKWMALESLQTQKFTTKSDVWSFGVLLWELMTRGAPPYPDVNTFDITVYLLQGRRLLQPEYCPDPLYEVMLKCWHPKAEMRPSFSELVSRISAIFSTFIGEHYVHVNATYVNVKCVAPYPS
pIC50: −log10 of the molar value.

Use these answered entries as a reference point.
O=C(Nc1ccc(F)cc1)C1(C(=O)Nc2ccc(Oc3ncnc4[nH]ncc34)cc2)CC1 ... < 6.30
O=C(Cc1ccccc1)NC(=S)Nc1ccc(Oc2ncnc3c2cnn3C2CCCCO2)cc1 (centres unmarked) ... < 6.30
O=C(Cc1ccccc1)NC(=S)Nc1ccc(Oc2ncnc3[nH]cnc23)cc1 ... < 6.30
O=C(Nc1ccc(F)cc1)C1(C(=O)Nc2ccc(Oc3ncnc4[nH]ccc34)c(F)c2)CC1 ... > 7.30

Query :: Report pIC50 for O=C(NCCN1CCOCC1)c1cc2c(Oc3ccc(NC(=O)C4(C(=O)Nc5ccc(F)cc5)CC4)cc3F)ncnc2[nH]1 tested on human c-Met kinase domain P948-S1343 (Homo sapiens).
Result :: > 7.30

Just for reference, patent US7977345B2 is where these values come from.
